Cited source for all entries: patent US20260103465A1

- test.target: GSK3a (GST-full length GSK3a) (Homo sapiens, UniProt P49840)
- Construct: GST-full length GSK3a [SignalChem G08-10G]; purchased SignalChem G08-10G
- Sequence (P49840 whole entry): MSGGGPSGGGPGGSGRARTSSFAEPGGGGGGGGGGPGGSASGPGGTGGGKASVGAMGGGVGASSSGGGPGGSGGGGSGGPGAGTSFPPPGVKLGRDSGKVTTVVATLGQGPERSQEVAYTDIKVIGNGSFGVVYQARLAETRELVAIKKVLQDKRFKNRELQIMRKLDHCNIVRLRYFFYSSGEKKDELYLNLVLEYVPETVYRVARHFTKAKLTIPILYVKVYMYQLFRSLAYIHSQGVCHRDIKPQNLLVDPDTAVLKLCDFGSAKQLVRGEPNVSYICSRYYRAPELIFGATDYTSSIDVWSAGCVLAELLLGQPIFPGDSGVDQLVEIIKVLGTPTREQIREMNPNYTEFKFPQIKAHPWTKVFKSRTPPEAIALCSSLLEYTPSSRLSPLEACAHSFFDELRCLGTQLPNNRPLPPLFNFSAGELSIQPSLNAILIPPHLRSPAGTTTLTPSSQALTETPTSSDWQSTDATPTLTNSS
- measurement.notes: GSK3a TR-FRET kinase inhibition assay
- Assay type: biochemical
- assay.setup: 10 μM ATP; read-out: GSK3a 10 μM ATP Average IC50
pIC50: −log10 of the molar value.
metric.name: pIC50

Some solved cases for reference:
[
  {
    "compound": "CC1(C)CC(=O)C2=C(C1)Nc1ncccc1C2(C)c1ccccc1 (single isomer, unassigned) [Compound 101A]",
    "pIC50": "≥ 7.00"
  },
  {
    "compound": "CC(C)(C)Cc1ccnc2c1C(C)(c1ccccc1)C1=C(CC(C)(C)CC1=O)N2 (single isomer, unassigned) [Compound 130A]",
    "pIC50": "≥ 7.00"
  },
  {
    "compound": "CC(C)(C)Cc1ccnc2c1C(C)(c1ccccc1)C1=C(CC(C)(C)CC1=O)N2 (single isomer, unassigned) [Compound 130B]",
    "pIC50": "6.00 to 7.00"
  }
]

## Task Look up pIC50 for this compound: CCC1(c2ccccc2)C2=C(CC(C)(C)CC2=O)Nc2ncccc21 (single isomer, unassigned) [Compound 102A]
## Result ≥ 7.00

## Task Look up pIC50 for this compound: CCC1(c2cccc(-c3cncn3C(C)C)c2)C2=C(CC(C)(C)CC2=O)Nc2ncccc21 (single isomer, unassigned) [Compound 149A]
## Result ≥ 7.00

## Task Look up pIC50 for this compound: CCC1(c2ccccc2)C2=C(CC(C)(C)CC2=O)Nc2ncc(C(F)(F)F)cc21 (single isomer, unassigned) [Compound 133A]
## Result ≥ 7.00
